Quick reference: GI50 of the listed items.
- Test system: Malme-3M
- assay explanation: NCI tumour cell line growth inhibition, 48 h
Calls of active or inactive are those of the source. Cut-off read from the data, not from the text of the source: active = GI50 up to about 1.1 µM and inactive = higher.

| molecule | tested target | GI50 |
| --- | --- | --- |
| Oc1ccc(-c2c3c(nc4c2CCc2ccc(Br)cc2-4)-c2cc(Br)ccc2CC3)cc1 | Malme-3M | 25.8 µM (inactive) |
| Cc1c(NC(=S)N/N=C\C(=N/NC(=S)Nc2c(C)n(C)n(-c3ccccc3)c2=O)c2ccccc2)c(=O)n(-c2ccccc2)n1C | Malme-3M | 87.1 µM (inactive) |
| O=C(c1cccc2ccccc12)C1S(=O)(=O)OCCOS1(=O)=O | Malme-3M | > 100 µM (inactive) |
| C=CC(C)(C)c1cc([C@@H]2COc3cc(O)ccc3C2=O)c(O)c(O)c1OC | Malme-3M | 30.5 µM (inactive) |
| O=C(O)c1ccccc1CC1Cc2ccc3c(c2C1=O)CCC3 (stereo not given) | Malme-3M | > 100 µM (inactive) |
| N#CC1C(=O)NC(=O)C(C#N)C1c1ccc(Cl)c(Cl)c1 (stereo not given) | Malme-3M | > 100 µM (inactive) |
| Cc1cc(C)c(S(=O)(=O)N(CCCCCCN)OCCCN)c(C)c1 | Malme-3M | 10.3 µM (inactive) |
| CC1CCCC(C(O)CC2CC(=O)N(c3ccccc3)C(=O)C2)C1=O (stereo not given) | Malme-3M | > 100 µM (inactive) |
| COc1cc(NC(C)=O)ccc1C(=O)NN1C(=O)C(Cl)C1c1ccco1 (stereo not given) | Malme-3M | > 100 µM (inactive) |
| O=C1/C(=C/c2ccc(Cl)c(Cl)c2)CNC/C1=C\c1ccc(Cl)c(Cl)c1 | Malme-3M | 28.1 µM (inactive) |

* * *

Form field: GI50 (one value per entry).
- Test system: HCT-116
- assay explanation: NCI tumour cell line growth inhibition, 48 h
Active and inactive are the calls of the source. No stated cut-off is given here; in the data, active = GI50 up to about 1.1 µM and inactive = higher. Non-standard residues stand in square brackets, D forms with d. Residues, ends and D or L forms follow the SMILES beside them. *: point of attachment. hSer = N[CH](CCO)C(=O)O; Boc = CC(C)(C)OC(=O)*

| compound | GI50 |
| --- | --- |
| COC(=O)C1(OC(=O)Sc2ccccc2)CCN(C)CC1 | 14.9 µM (inactive) |
| COCCC(NC(=O)C(CC(C)C)NC(=O)OC(C)(C)C)C(N)=O (stereo not drawn) (Boc-Leu-[hSer](Me)-NH2; configuration not given here) | > 100 µM (inactive) |
| CNC(=S)NNc1ncnc2c1ncn2-c1ccc(C)cc1 | > 100 µM (inactive) |
| CC1NOC(=O)C1/N=N/c1ccccc1Br (stereo not given) | 32.5 µM (inactive) |
| O=C1C(Nc2ccccc2)=CC2=NCCc3n[nH]c1c32 | 18 µM (inactive) |

* * *

- System: NCI-H226
- assay explanation: NCI tumour cell line growth inhibition, 48 h
Calls of active or inactive are those of the source. Cut-off read from the data, not from the text of the source: active = GI50 up to about 1.1 µM and inactive = higher. Where a SMILES comes first, the peptide text is derived from it.
readout type: GI50

| molecule | result |
| --- | --- |
| COC(=O)C1=C(C)N(NC(N)=O)C(C)(O)C12CCOC2=O (stereo not drawn) | > 100 µM (inactive) |
| CNC(=O)C(C)C1CCC2(C)C=CC(=O)C(C)=C2C1O (stereo not drawn) | > 100 µM (inactive) |
| C[C@@H]1CC(=O)C[C@@H]2CC[C@H]3[C@@H]4CC[C@H](OC(=O)c5cccc6cc7ccccc7nc56)[C@H]4CC[C@@H]3[C@H]21 | 26.5 µM (inactive) |
| IC[P+]1(c2ccccc2)CCCC1 | 24.2 µM (inactive) |
| CC1(c2ccc(Cl)cc2)C=C(c2ccc(Cl)cc2)C(C#N)=C(C(C#N)C#N)N1.CNC (stereo not drawn) | 19.8 µM (inactive) |
| COc1ccc(-n2c(-c3ccccc3)cc(-c3cccs3)c2-c2cccs2)cc1 | > 100 µM (inactive) |
| COc1cc(/C=C/C(=O)O)ccc1C(=O)OCc1ccccc1 | > 100 µM (inactive) |
| CCCCCCCCCCCCN1[C@H]2CCC[C@H]2C(O)[C@@H]2CCC[C@@H]21 (stereo partly drawn) | 96.6 µM (inactive) |
| CC(=O)OC1CC2C(=O)CC1(C)C2(C)C (stereo not drawn) | > 100 µM (inactive) |
| CCC(C)C(NC(=O)C1CCCN1C(=O)C(CC(C)C)NC(=O)C(CC(C)C)NC(=O)C(N)CC(C)C)C(=O)NC(C(=O)NCC(=O)NC(CC(N)=O)C(=O)NC(CC(C)C)C(=O)NC(CC(C)C)C(=O)NC(CC(C)C)C(N)=O)C(C)C (stereo not drawn) (H-LLLPIVGNLLL-NH2; configuration not given here) | > 50 µM (inactive) |
| COC1=CC(=O)O/C1=C(\OC)C1OC1c1ccccc1 (stereo not drawn) | > 100 µM (inactive) |
| C=CCN1C(N)=C(C#N)C(C#N)(C#N)C1CCC (stereo not drawn) | > 100 µM (inactive) |
| Cc1nc(C)c(C(=O)NNC(=O)Cc2ccccc2)cc1C(=O)NNC(=O)Cc1ccccc1 | > 100 µM (inactive) |

* * *

- System: SNB-19
- assay explanation: NCI tumour cell line growth inhibition, 48 h
The source made the active and inactive calls. No stated cut-off is given here; in the data, active = GI50 up to about 1.1 µM and inactive = higher.

| molecule | GI50 |
| --- | --- |
| O=c1s[s+]([O-])c2ccccc12 (stereo unspecified) | > 100 µM (inactive) |
| c1ccc(-c2c(-c3[nH]c4ccccc4c3-c3ccccc3)[nH]c3ccccc23)cc1 | 6.5 µM (inactive) |
| Cc1c(NC(=O)Nc2c(Cl)cccc2Cl)c(=O)n(-c2ccccc2)n1C | > 100 µM (inactive) |
| C=C1CC[C@](C)(O)[C@@]2(C)CC[C@H]3C(=C(C)C)C(=O)C[C@]3(C)C[C@H]12 | > 50 µM (inactive) |
| COC(=O)C(=CNC(N)=O)C(=O)OC | > 100 µM (inactive) |
| N/C(=N\c1c([N+](=O)[O-])cnc2ccccc12)N1CCOCC1 | > 100 µM (inactive) |

* * *

The entries below are paired with their reported GI50.
- Tested on: Malme-3M
- assay explanation: NCI tumour cell line growth inhibition, 48 h
Active and inactive are the calls of the source. No stated cut-off is given here; in the data, active = GI50 up to about 1.1 µM and inactive = higher.

| compound | GI50 |
| --- | --- |
| C/C(=N\NC(=O)N/N=C(\C)c1ccccn1)c1ccccn1 | > 100 µM (inactive) |
| CCOC(=O)C1CCn2c(nc3c(=O)n(C)c(=O)n(C)c32)S1 (stereo unspecified) | > 100 µM (inactive) |
| N/N=C1/C(=O)N(c2ccc(Cl)cc2)C(=O)C(=O)C1c1nc2ccccc2s1 (stereo unspecified) | > 100 µM (inactive) |
| COc1cc(/C=C/C(=O)CC(=O)/C=C/c2ccc(O)c(OC)c2)ccc1O [CURCUMIN] | 14 µM (inactive) |
| CCn1c2ccccc2c2cc(/N=N\c3ccc(C#N)cc3)ccc21 | 18.7 µM (inactive) |
| CC1(c2ccc(Cl)cc2)C=C(c2ccc(Cl)cc2)C(C#N)=C(C(C#N)C#N)N1.CNC (stereo unspecified) | 14.1 µM (inactive) |
| Nc1ccc(S(=O)(=O)Nc2nccs2)cc1 [SULFATHIAZOLE] | > 100 µM (inactive) |
| CC(=O)Oc1ccc(Nn2c3ccccc3c3ccccc32)c(C)c1 | 28.6 µM (inactive) |
| COc1cc([C@@H]2c3cc4c(cc3[C@@H](NCCCN(C)C)[C@H]3COC(=O)[C@H]23)OCO4)cc(OC)c1O | 0.379 µM (active) |
| CC1(O)CC2C(CC1SCCO)C2(C)C (stereo unspecified) | > 100 µM (inactive) |
| COC(=O)C1=C(C(=O)OC)SC2(S1)C(C(=O)OC)=C(C(=O)OC)Sc1c2ss/c1=N/C(C)(C)C | 2.18 µM (inactive) |
| COC1=CC(=O)O/C1=C(\OC)C1OC1c1ccccc1 (stereo unspecified) | > 100 µM (inactive) |
| CN(N)c1cc(=O)[nH]c(=O)[nH]1 | > 100 µM (inactive) |
| Oc1c(C2=NNC(c3ccc(Cl)cc3Cl)C2)ccc2ccccc12 (stereo unspecified) | 17.9 µM (inactive) |
| Nc1nc(Cl)cc(NCC2(CO)CC(c3ccccc3)C2)n1 (stereo unspecified) | 46.5 µM (inactive) |
| O=c1[nH]c2nc(S)nc(S)c2[nH]1 | > 100 µM (inactive) |
| O=C1c2cccc3cccc(c23)C(=O)N1O | > 100 µM (inactive) |
| CCN(c1n[n+]2c(-c3ccccc3)csc2s1)c1n[n+]2c(-c3ccccc3)csc2s1 | 23.3 µM (inactive) |
| CC(C)=CC(O)C(C(O)CCC1(C)OCCO1)S(=O)(=O)c1ccccc1 (stereo unspecified) | > 100 µM (inactive) |
| Cc1ccc(S(=O)(=O)N/N=C(/c2nc3ccc([N+](=O)[O-])cc3nc2O)C(O)c2ccc(C(O)/C(=N\NS(=O)(=O)c3ccc(C)cc3)c3nc4ccc([N+](=O)[O-])cc4nc3O)cc2)cc1 (stereo unspecified) | > 100 µM (inactive) |
| N#CC1C(=O)NC2=C(CCOc3c2ccc2ccccc32)C1c1ccc(F)cc1 (stereo unspecified) | 27.8 µM (inactive) |
